pIC50: −log10 of the molar value.
Literature-derived pIC50 for Cytochrome P450 2D6 (Homo sapiens) follows.

Some compounds with known pIC50 results, for comparison:
O=C1CCc2ccc(CCN3CCC(Cc4ccc(Br)c(OCCO)c4)CC3)cc21; 4.61
CC(C)(C)S(=O)(=O)Nc1cnc(C(=O)Nc2ccc(F)c([C@]3(C)C=CSC(N)=N3)c2)cn1; < 4.70
COc1nc(OCc2cccc(-c3ccccc3)c2C)nc(OC)c1CN1CCCC[C@H]1C(=O)O; < 5.00
COCCCNc1ncnc2[nH]cc(C(=O)c3ccc(Nc4ccc(OC)nc4)nc3F)c12; < 5.00
O=C(Nc1ccccc1O)c1ccc(Oc2cccc(C(=O)Nc3ccccc3O)c2)cc1; < 4.30

Return the recorded pIC50 value; entry: `C[C@H](c1ccc(F)cc1)n1cncc1CC1CCN(S(=O)(=O)c2cnc(N3CCN(C)CC3)s2)CC1` 5.62

Return the recorded pIC50 value; entry: `C[C@@H](c1ccccc1-c1ccc(F)cc1)n1cncc1C(=O)N1CCC(N2CCNC(=O)CC2)CC1` < 5.00

Return the recorded pIC50 value; entry: `C[C@@H](c1ccccc1-c1ccc(F)cc1)n1cncc1C(=O)N1CCC[C@H]2OCCN[C@@H]2C1` < 5.00
